Where these numbers come from: patent US20180338980A1

Biological target: P2X4 (Homo sapiens, UniProt Q99571)
Sequence (Q99571 1-388): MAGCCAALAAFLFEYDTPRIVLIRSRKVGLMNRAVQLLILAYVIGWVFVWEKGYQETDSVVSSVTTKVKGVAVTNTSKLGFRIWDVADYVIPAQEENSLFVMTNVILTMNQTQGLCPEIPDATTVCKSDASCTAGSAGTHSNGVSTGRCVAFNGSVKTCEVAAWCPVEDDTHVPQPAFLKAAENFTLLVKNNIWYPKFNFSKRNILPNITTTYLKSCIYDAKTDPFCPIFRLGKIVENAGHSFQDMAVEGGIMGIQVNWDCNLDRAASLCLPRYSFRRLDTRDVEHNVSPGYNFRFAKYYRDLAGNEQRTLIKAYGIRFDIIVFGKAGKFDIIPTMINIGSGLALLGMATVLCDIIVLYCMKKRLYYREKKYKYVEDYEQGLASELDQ
Experiment: Assay A: human P2X4 receptor cell line, FLIPR calcium assay (Fluo-8, agonist Bz-ATP at EC80)
Type: cell-based
Parameters: host or cells: HEK 293 (recombinant, constitutively expressing; with mitochondrial photina in Assay B)
Conditions: percentage of maximal inhibition; HEK human P2X4 cells, Fluo-8 FLIPR; read-out: human P2X4 Assay A avg Efficacy
We use 80% as the dividing line for Emax: on or above the line is 1.0, below is 0.0.

Has NS(=O)(=O)c1cc(NC(=O)Cc2cccc(F)c2Cl)c(Cl)cc1Oc1cccc(Cl)c1 [Example 083] a recorded Emax greater than or equal to 80%? 0.0

Please indicate if the recorded Emax for CS(=O)(=O)c1cccc(COc2ccc(NC(=O)Cc3ccccc3Cl)cc2S(N)(=O)=O)c1 [Example 136] meets or exceeds 80%. 1.0

Confirm if Emax reported for the compound C=C(C)c1ccccc1Oc1ccc(NC(=O)Cc2ccccc2Cl)cc1S(N)(=O)=O [Example 178] is 80% or above. 0.0

Form field: Emax at least 80%? Entry: NS(=O)(=O)c1cc(NC(=O)Cc2ccccc2Cl)ccc1OCC1CCC1 [Example 157] 0.0

hey, is Emax for this one >= 80%? NS(=O)(=O)c1cc(NC(=O)Cc2ccc(F)cc2)ccc1Oc1cccc(Cl)c1 [Example 085] 1.0

Decide: is the reported value of Emax for COc1cccc(CC(=O)Nc2ccc(Oc3cccc(Cl)c3)c(S(N)(=O)=O)c2)c1 [Example 191] equal to or greater than 80%? 1.0

Textbook exercise: given the entry NS(=O)(=O)c1cc(NC(=O)Cc2ccccc2Cl)ccc1OCC1COCCO1 (centres unmarked) [Example 268] , state whether its Emax is greater than or equal to 80%. 0.0

Could you please find out whether NS(=O)(=O)c1cc(NC(=O)Cc2ccccc2Cl)ccc1Oc1cccc(C(=O)NC2CC2)c1 [Example 037] has Emax that meets 80% or exceeds it? 0.0

# bool: Emax of CN(C)c1cccc(Oc2ccc(NC(=O)Cc3ccccc3Cl)cc2S(N)(=O)=O)c1 [Example 002] >= 80% 1.0

---

Target: P2X4 (Homo sapiens, UniProt Q99571)
Sequence (Q99571 1-388): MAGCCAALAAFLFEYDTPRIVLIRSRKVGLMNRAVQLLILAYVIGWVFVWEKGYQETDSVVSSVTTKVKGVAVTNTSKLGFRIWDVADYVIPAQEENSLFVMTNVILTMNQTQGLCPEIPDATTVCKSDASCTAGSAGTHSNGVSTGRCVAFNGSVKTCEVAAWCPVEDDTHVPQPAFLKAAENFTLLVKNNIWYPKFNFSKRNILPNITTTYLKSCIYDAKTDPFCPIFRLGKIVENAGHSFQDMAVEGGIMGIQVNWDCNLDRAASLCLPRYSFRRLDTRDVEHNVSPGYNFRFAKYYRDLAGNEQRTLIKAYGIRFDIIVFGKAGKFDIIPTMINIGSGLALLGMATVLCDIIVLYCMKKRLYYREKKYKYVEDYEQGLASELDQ
Assay: Assay B: human P2X4 receptor cell line, mitochondrial photina luminescence (agonist Bz-ATP at EC50)
Type: cell-based
Set-up: host or cells: HEK 293 (recombinant, constitutively expressing; with mitochondrial photina in Assay B)
Details: HEK human P2X4 cell line, photina luminescence, agonist Bz-ATP at EC50, average; read-out: human P2X4 Assay B avg Efficacy
Method: The identification of agonists and antagonists of the P2X4 receptor from humans and […] also the quantification of the activity of the compounds of the invention was performed by use of recombinant cell lines. […] The test cell lines constitutively express the mouse or human P2X4 receptors. […] The strength of Fluo8 fluorescence signal or photina luminescence signal corresponds to the level of receptor activation. […] The resulting light signal is measured immediately in the luminometer.
ENDPOINT: Emax (%)
Form entry: value (%) — number only.

Please give the documented Emax of CC(C(=O)Nc1ccc(Oc2cccc(Cl)c2)c(S(N)(=O)=O)c1)c1ccccc1 (stereo not shown) 53

Answer with reported Emax of CC(Oc1ccc(NC(=O)Cc2ccccc2Cl)cc1S(N)(=O)=O)c1ccccc1 (single isomer, unassigned) [Example 148A] 68

Tell us which Emax value is on record for "N#Cc1cc(Oc2ccc(NC(=O)Cc3ccccc3Cl)cc2S(N)(=O)=O)ccc1F" 57

Read off the recorded Emax for "NS(=O)(=O)c1cc(NC(=O)Cc2ccccc2Cl)ccc1Oc1cccc(N2CCOCC2=O)c1" 92

For the molecule "NS(=O)(=O)c1cc(NC(=O)Cc2cccc(Cl)c2Cl)ccc1Oc1cccc(Cl)c1" , give its measured Emax value. 70

State its Emax for this molecule: "NS(=O)(=O)c1cc(NC(=O)Cc2ccccc2Br)ccc1Oc1cccc(Cl)c1" 58

Give Emax for "NS(=O)(=O)c1cc(NC(=O)Cc2ccccc2Cl)ccc1Oc1cccnc1" 79

Give reported Emax value for "NS(=O)(=O)c1cc(NC(=O)Cc2ccc(Cl)cn2)ccc1Oc1cccc(Cl)c1" 64

Quote Emax reported for "Cc1cccc(CC(=O)Nc2cc(F)c(Oc3cccc(Cl)c3)c(S(N)(=O)=O)c2)c1" please. 63

Report Emax, nothing else, for this molecule: "CS(=O)(=O)c1ccc(COc2ccc(NC(=O)Cc3ccccc3Cl)cc2S(N)(=O)=O)cc1" 69

State its Emax: "NS(=O)(=O)c1cc(NC(=O)Cc2ncccc2Cl)ccc1Oc1cccc(Cl)c1" 60

Give the measured Emax for "N#Cc1cccc(CC(=O)Nc2ccc(Oc3cccc(Cl)c3)c(S(N)(=O)=O)c2)c1" 75

Provide one value: measured Emax of "N#Cc1cccc(Oc2ccc(NC(=O)Cc3ccccc3)cc2S(N)(=O)=O)c1" 64

Give Emax for the following molecule: "NS(=O)(=O)c1cc(NC(=O)Cc2ccccc2Cl)ccc1Oc1ccccc1F" 76

Please report the measured Emax for "NC(=O)c1cccc(Oc2ccc(NC(=O)Cc3ccccc3Cl)cc2S(N)(=O)=O)c1" 65

Name the recorded Emax of the item "CC(=O)c1cccc(Oc2ccc(NC(=O)Cc3ccccc3Cl)cc2S(N)(=O)=O)c1" in your answer. 104

Indicate the recorded Emax value for this molecule: NS(=O)(=O)c1cc(NC(=O)Cc2ccccc2Cl)ccc1OC1CC[S+]([O-])C1 (stereo not shown) 34

# return recorded Emax for input "NS(=O)(=O)c1cc(NC(=O)Cc2ccccc2Cl)ccc1Oc1cccc(-n2cnnc2)c1" 96

For the molecule "NS(=O)(=O)c1cc(NC(=O)Cc2ccccc2C(F)F)ccc1Oc1cccc(Cl)c1" , give its measured Emax value. 66

Quick one: give measured Emax for "COc1cccc(Oc2ccc(NC(=O)Cc3ccccc3Cl)cc2S(N)(=O)=O)c1" 54

Return the recorded Emax value; entry: "NS(=O)(=O)c1cc(NC(=O)Cc2cnc(Cl)cc2Cl)ccc1Oc1cccc(Cl)c1" 48

Given the molecule CN1CCC(Oc2ccc(NC(=O)Cc3ccccc3)cc2S(N)(=O)=O)C1 (stereo not shown) , write its reported Emax. 30

Return Emax (reported value) for this molecule: "NS(=O)(=O)c1cc(NC(=O)Cc2cc(F)c(F)cc2Cl)ccc1Oc1cccc(Cl)c1" 55

Check the records and state Emax for "NS(=O)(=O)c1cc(NC(=O)Cc2ccccc2Cl)ccc1Oc1cnc(Cl)nc1" 40

Report Emax for "NS(=O)(=O)c1cc(NC(=O)Cc2ccccc2Cl)ccc1OCC1COC1" 91
